system: OVCAR-8 complex spheroid, growth inhibition; assay: Anticancer human tumor OVCAR-8 cell line growth inhibition [Asc]; conditions: second compound 0.316 µM; first compound 0.000316 µM; hits give low values;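 note: spheroids exposed to agents for 7 days before readout; percent viability relative to DMSO vehicle wells taken as 100%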
readout-label: viability, T/C (%)

- NC1CCC(NC2CC2c2ccccc2)CC1 (stereo not drawn) + CNC(C)C(=O)NC1CN(S(=O)(=O)c2cccc(S(=O)(=O)N3CCC4CCC(C(=O)NC(c5ccccc5)c5ccccc5)N4C(=O)C(NC(=O)C(C)NC)C3)c2)CCC2CCC(C(=O)NC(c3ccccc3)c3ccccc3)N2C1=O: 78.8
- Cn1ncnc1[C@H]1c2n[nH]c(=O)c3cc(F)cc(c23)N[C@@H]1c1ccc(F)cc1 + Cc1c(S(C)(=O)=O)c(-c2cc(F)cc(N3CCN(c4ccc(NS(=O)(=O)c5ccc(NC(CCN6CCC(C(=O)OCCCP(=O)(O)O)CC6)CSc6ccccc6)c(S(=O)(=O)C(F)(F)F)c5)cc4)CC3)c2)c(-c2ccc(Cl)cc2)n1C(C)C: 122
- NC1CCC(NC2CC2c2ccccc2)CC1 (stereo not drawn) + Cc1c(S(C)(=O)=O)c(-c2cc(F)cc(N3CCN(c4ccc(NS(=O)(=O)c5ccc(NC(CCN6CCC(C(=O)OCCCP(=O)(O)O)CC6)CSc6ccccc6)c(S(=O)(=O)C(F)(F)F)c5)cc4)CC3)c2)c(-c2ccc(Cl)cc2)n1C(C)C: 99.2

Hey, just so you know, these numbers are from PubChem BioAssay AID1963437.
